# EXPERIMENTAL TARGET: Cathepsin S (Homo sapiens)
# Sequence (P25774 115-331, species assumed): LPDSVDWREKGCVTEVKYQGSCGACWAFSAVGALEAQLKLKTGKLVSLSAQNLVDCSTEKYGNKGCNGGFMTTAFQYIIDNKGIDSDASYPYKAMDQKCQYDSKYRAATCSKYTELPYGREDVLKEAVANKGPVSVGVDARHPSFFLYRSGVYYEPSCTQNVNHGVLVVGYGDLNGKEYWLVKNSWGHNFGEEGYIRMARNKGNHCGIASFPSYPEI
# ASSAY DETAILS: Cathepsin S inhibition, fluorogenic peptide substrate kinetic assay
# Assay type: biochemical
# CONDITION LABEL: Table II; Cathepsin S inhibition constant, pH5.5; read-out: Ki Cat. S
pKi: −log10 of the molar value.
pKi reference

SMILES RECORD: Cn1nc(C(F)(F)F)cc1-c1ccc(S(=O)(=O)N[C@@H](CC2CCCCC2)C(=O)NCCN2CCc3cc(F)ccc32)s1
pKi: > 7.00
//
SMILES RECORD: COc1ccc(S(=O)(=O)N[C@@H](CC2CCCCC2)C(=O)NCCN2CCc3cc(F)ccc32)cc1
pKi: > 6.00
//
SMILES RECORD: C[C@@H](CNc1c(F)cccc1F)NC(=O)[C@H](CC1CCCCC1)NC(=O)c1ccc(-c2cccc(F)c2)o1
pKi: > 7.00
//
SMILES RECORD: O=C(N[C@@H](CC1CC1)C(=O)NCCN1CCc2cc(F)ccc21)c1ccc(-c2cccc(C(F)(F)F)c2)o1
pKi: > 6.00

Entry source: patent US20040248887A1
